Counter-ions that a name gives are not always drawn.
QUANTITY KIND: melting point

COMPOUND	melting point
CCc1c(C(=O)C(N)=O)c2c(OCC(=O)N(C)Oc3ccccc3)cccc2n1Cc1ccccc1	146 to 147.5 °C
CCONC(=O)COc1cccc2c1c(C(=O)C(N)=O)c(CC)n2Cc1ccccc1 (as salt: hydrochloride)	176 to 178 °C

Look up melting point: CCc1c(C(=O)C(N)=O)c2c(OCC(=O)N(O)C3CCCCC3)cccc2n1Cc1ccccc1 (as salt: hydrochloride)
210 °C (dec.)

Quick check: melting point of CCc1c(C(=O)C(N)=O)c2c(OCC(=O)NOc3ccccc3)cccc2n1Cc1ccccc1 (as salt: hydrochloride) ?
205 °C (dec.)

I have this compound here, `CCc1c(CC(N)=O)c2c(OCC(=O)NO)cccc2n1Cc1ccccc1` , and I need its recorded melting point.
187 to 189 °C

What value of melting point has been recorded for this entry: CCc1c(C(=O)C(N)=O)c2c(OCC(=O)NOCc3ccccc3)cccc2n1Cc1ccccc1 (as salt: hydrochloride)
167 to 169 °C

* * *

Readings of melting point for the listed molecules
Counter-ions that a name gives are not always drawn.

Please give the measured melting point for this molecule: CCc1c(C(=O)C(N)=O)c2c(OCC(=O)N(C)OC)cccc2n1Cc1ccccc1 (as salt: hydrochloride) [Compound 2Ac]
168 to 170 °C

Consider the molecule shown here: C=CCONC(=O)COc1cccc2c1c(C(=O)C(N)=O)c(CC)n2Cc1ccccc1 (as salt: hydrochloride) [Compound 2Af] What is its recorded melting point?
175 to 177 °C

What value of melting point has been reported for the following molecule? CCc1c(C(=O)C(N)=O)c2c(OCC(=O)N(O)C(C)C)cccc2n1Cc1ccccc1 (as salt: hydrochloride) [Compound 2Ag]
202 °C (dec.)

Any idea what its melting point is? The molecule is CCc1c(C(=O)C(N)=O)c2c(OCC(=O)NOC(C)(C)C)cccc2n1Cc1ccccc1 (as salt: hydrochloride) [Compound 2Ah]
203 to 205 °C

* * *

Counter-ions that a name gives are not always drawn.
Listed here are compounds together with their documented melting point.

The following compounds have reported results that may help.
COMPOUND	melting point
CCc1c(C(=O)C(N)=O)c2c(OCC(=O)NOC)cccc2n1Cc1ccccc1	228 °C (dec.)
CCc1c(C(=O)C(N)=O)c2c(OCC(=O)N(C)O)cccc2n1Cc1ccccc1 (as salt: hydrochloride)	217 °C (dec.)

Now consider a different compound.
# get_value(readout='melting point', item= `CCc1c(C(=O)C(N)=O)c2c(OCC(=O)N(C)OCc3ccccc3)cccc2n1Cc1ccccc1` )
186.5 to 188.5 °C
